B1: C9orf9 (parent)
chain: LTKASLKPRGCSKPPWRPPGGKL

Variants of: B1
Assay: protein stability index of a GFP-peptide fusion (GPS, HEK-293T) (PSI 1-6); higher = more stable;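 further: lentivirally expressed fusions sorted by FACS into six bins by GFP to DsRed ratio, PSI derived from sequencing read proportions per bin multiplied by bin number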
Conditions: c terminus: native
Rule: satisfied for protein stability index not less than 2, not satisfied for anything less.

Previously resolved entries follow.
K13E    satisfied
L6R    satisfied
L23C    not satisfied

[Q] Tell me whether protein stability index is at least 2 here: S12P
[A] not satisfied
